Hello, the source for this data is ChEMBL document CHEMBL3988442, in case you need it.

Target: Tyrosyl-tRNA synthetase, putative (Trypanosoma cruzi (strain CL Brener)) (UniProt Q4DSP6)
Sequence (whole entry): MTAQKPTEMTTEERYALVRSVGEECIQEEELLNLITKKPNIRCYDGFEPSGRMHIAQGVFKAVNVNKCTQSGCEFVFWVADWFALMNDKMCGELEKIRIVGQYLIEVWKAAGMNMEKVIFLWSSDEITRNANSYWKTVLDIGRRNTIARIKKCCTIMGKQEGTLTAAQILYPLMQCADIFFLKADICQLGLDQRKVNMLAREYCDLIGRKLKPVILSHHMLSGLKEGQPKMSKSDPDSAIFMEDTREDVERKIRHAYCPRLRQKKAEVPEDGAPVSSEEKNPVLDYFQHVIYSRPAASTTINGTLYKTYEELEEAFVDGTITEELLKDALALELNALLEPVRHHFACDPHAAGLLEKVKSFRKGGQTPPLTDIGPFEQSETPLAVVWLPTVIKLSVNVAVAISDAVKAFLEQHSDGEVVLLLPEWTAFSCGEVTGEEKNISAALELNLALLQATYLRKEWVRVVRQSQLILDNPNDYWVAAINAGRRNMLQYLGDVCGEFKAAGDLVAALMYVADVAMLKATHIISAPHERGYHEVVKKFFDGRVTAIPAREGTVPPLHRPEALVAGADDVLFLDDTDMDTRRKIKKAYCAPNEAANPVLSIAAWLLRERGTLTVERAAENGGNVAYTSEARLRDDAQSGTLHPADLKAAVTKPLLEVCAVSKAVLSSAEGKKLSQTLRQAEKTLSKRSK
Experiment: Trypanosoma cruzi tyrosyl tRNA synthetase (TcYRS) _High Tyrosine SOP; also: in the data most compounds retested in dose-response had high values
Format: functional
Design: scale not given: direction of the effect not stated beside the values
Conditions: 30 µM
measured-attribute: Percent Effect (%)
Entry rule: numbers only, all in %.

Respond only with Percent Effect recorded for COc1ccsc1C(=O)N1CCCC(n2nc(C)nc2C)C1 (centres undefined)
6.4

Respond only with Percent Effect recorded for Cn1ccnc1CN1CCN(c2ccc(C#N)cc2F)CC1
6.93

Respond only with Percent Effect recorded for CC(C)C(Sc1nnc(C2CC2)n1C1CC1)C(=O)NCc1cccnc1 (centres undefined)
5.83

Respond only with Percent Effect recorded for Cc1cc(C)c(CNC(=O)NCC(c2ccccc2)N(C)C)c(=O)[nH]1 (centres undefined)
7.39

Respond only with Percent Effect recorded for O=C(CN1CC(n2cccn2)C1)NCCc1c[nH]c2ccccc12
0.99

New cases:
Respond only with Percent Effect recorded for CCn1c(N)nc2cc(C(=O)NCCc3ccccc3C)cnc21
5.38

Respond only with Percent Effect recorded for O=C(NCC(O)c1ccc(F)c(F)c1)c1cccnc1OCC(F)(F)F (centres undefined)
4.17

----------
target: Chromo domain-containing protein 1 (Saccharomyces cerevisiae (strain ATCC 204508 / S288c) (Baker's yeast)); test: ScCHD-1 Enzyme Inhibition Assay; type: functional; parameters: scale not given: in the data most compounds retested in dose-response had high values; details: 30 µM
measured-attribute: Percent Effect
Remember to quote the unit after the number.

Sample answers from the record:
Respond only with Percent Effect recorded for O=C(c1ncccn1)N1C[C@H]2CCC[C@@]2(COCC2CCOCC2)C1
2.35%

Respond only with Percent Effect recorded for O=C(CCNS(=O)(=O)c1ccccc1)NCc1ccoc1
-4.93%

Respond only with Percent Effect recorded for Cc1nn(C)c(C)c1C1CCCN1Cc1noc(C2CC2)n1 (configuration not stated)
-6.57%

Respond only with Percent Effect recorded for O=C(NCc1ccco1)c1nn(C2CCS(=O)(=O)C2)c2c1CCCC2 (configuration not stated)
-0.898%

Respond only with Percent Effect recorded for CCOc1cccc(CNc2ccccc2C(=O)OC)c1O
-13.3%

New cases:
Respond only with Percent Effect recorded for Cc1ccccc1C(=O)NCc1ccc(N2CCNC(=O)C2)cc1
-3.63%

Respond only with Percent Effect recorded for CC(=O)N1CCC(c2ccnc(Nc3cncnc3)n2)C1 (configuration not stated)
-3.42%

----------
Percent Effect by entry:
biological target: AMP-activated protein kinase, AMPK (Homo sapiens) (UniProt P54646+O43741+P54619+Q9UGJ0+Q9Y478+Q13131+Q9UGI9); test: AMP-dependent Kinase enzyme assay. An in vitro enzyme assay that detects ADP turnover that is directly proportional to AMPK activity. This uses naive AMPK that is activated during the assay with MK-8722; format: functional; set-up: scale not given: direction of the effect not stated beside the values; settings: 30 µM
Entry rule: numbers only, all in %.

Sample answers from the record:
Respond only with Percent Effect recorded for CN(C)C(=O)[C@H]1C[C@@H]2CN(S(=O)(=O)Cc3ccccc3)C[C@H]1O2
5.4

Respond only with Percent Effect recorded for CCn1c(N)nc2cc(C(=O)NCc3ccccc3Cl)cnc21
1.39

Respond only with Percent Effect recorded for O=C(NCCN1CCNCC1)c1c(O)c2ccccc2[nH]c1=O
11

Respond only with Percent Effect recorded for CC(C)CN1CCCn2nc(CNC(=O)CCCc3cn[nH]c3)cc2C1
1.75

Respond only with Percent Effect recorded for Cc1cc(C(=O)N2C[C@@H](C(=O)O)[C@H](c3ccccc3C)C2)c(C)o1
4.96

New cases:
Respond only with Percent Effect recorded for O=C(COCc1ccccc1)N1CCCC(n2cncn2)C1 (stereo unspecified)
-5.92

Respond only with Percent Effect recorded for Cc1ccc(CNC2CCCc3c2cnn3C)s1 (stereo unspecified)
5.11

Respond only with Percent Effect recorded for Cc1ccoc1C(=O)NCC(Cc1ccc(F)cc1)C(N)=O (stereo unspecified)
4.14

Respond only with Percent Effect recorded for CN(C)C(=O)c1ccc2c(c1)N(C)C(CC(=O)NCc1ccno1)CO2 (stereo unspecified)
-9.68

Respond only with Percent Effect recorded for CC(=O)N1C[C@H](NC(=O)c2cscn2)[C@@H]2OCCC[C@@H]21
2.39

Respond only with Percent Effect recorded for CC(=O)c1cc(CN2C[C@H]3CC[C@@H]2CN(S(=O)(=O)N(C)C)C3)cs1
-10.7

----------
Percent Effect by entry:
molecular target: Arginase-2, mitochondrial (Homo sapiens) (UniProt P78540); test: in vitro enzyme assay to detect the production of urea directly proportional to the activity of Arginase II; type: functional; parameters: scale not given: in the data most compounds retested in dose-response had high values; conditions: 33.3 µM
Sequence (P78540 whole entry): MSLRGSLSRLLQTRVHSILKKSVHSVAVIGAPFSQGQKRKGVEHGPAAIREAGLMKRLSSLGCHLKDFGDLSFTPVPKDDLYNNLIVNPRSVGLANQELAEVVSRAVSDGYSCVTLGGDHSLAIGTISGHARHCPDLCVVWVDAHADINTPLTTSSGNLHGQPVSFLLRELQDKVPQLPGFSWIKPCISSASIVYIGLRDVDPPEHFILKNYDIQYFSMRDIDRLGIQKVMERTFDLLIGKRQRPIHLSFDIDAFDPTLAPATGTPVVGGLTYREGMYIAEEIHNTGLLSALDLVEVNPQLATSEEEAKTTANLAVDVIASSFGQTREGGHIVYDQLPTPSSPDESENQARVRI
Entry rule: numbers only, all in %.

Lab note: Arginase-2, mitochondrial (Homo sapiens) (UniProt P78540) assay, enter Percent Effect for O=C(Cn1cc(C(=O)O)ccc1=O)Nc1ccc(F)cc1Cl here
-12.2

Lab note: Arginase-2, mitochondrial (Homo sapiens) (UniProt P78540) assay, enter Percent Effect for O=C(NCC1CCOC1)c1csc(-c2cccc(Cl)c2)n1 (stereo not given) here
0.712

Lab note: Arginase-2, mitochondrial (Homo sapiens) (UniProt P78540) assay, enter Percent Effect for Cc1cccc(C(=O)N2C[C@@H]3OCCN(c4ncccn4)[C@@H]3C2)n1 here
-8.78

Lab note: Arginase-2, mitochondrial (Homo sapiens) (UniProt P78540) assay, enter Percent Effect for CCN1CCCn2c(nc(CNC(=O)c3ccsc3)cc2=O)C1 here
9.24

Lab note: Arginase-2, mitochondrial (Homo sapiens) (UniProt P78540) assay, enter Percent Effect for Cc1nc(C)c(C(=O)NCCNC(=O)Cc2ccccc2)s1 here
-2.4

Lab note: Arginase-2, mitochondrial (Homo sapiens) (UniProt P78540) assay, enter Percent Effect for CC(C)N(C)Cc1cnc2n1CCN(CCc1ccccc1)C2 here
-2.92

Lab note: Arginase-2, mitochondrial (Homo sapiens) (UniProt P78540) assay, enter Percent Effect for Cc1ccc(C(=O)N2CCSCC2)cc1NC(=O)Cn1cncn1 here
-7.98

Lab note: Arginase-2, mitochondrial (Homo sapiens) (UniProt P78540) assay, enter Percent Effect for Cc1cccc(CN2CCC3(CCCN(C(=O)NC4CC4)C3)C2=O)n1 (stereo not given) here
5.81

Lab note: Arginase-2, mitochondrial (Homo sapiens) (UniProt P78540) assay, enter Percent Effect for C[C@H]1C[C@@H]2CCN(C(=O)c3cccn3C)C[C@H]2O1 here
6.69

Lab note: Arginase-2, mitochondrial (Homo sapiens) (UniProt P78540) assay, enter Percent Effect for COc1c(C2CCCN2Cc2csc(C(C)C)n2)c(C)nn1C (stereo not given) here
4.63

New cases:
Lab note: Arginase-2, mitochondrial (Homo sapiens) (UniProt P78540) assay, enter Percent Effect for c1coc(-c2nnc(CN3CCOC(Cn4cccn4)C3)o2)c1 (stereo not given) here
0.76

Lab note: Arginase-2, mitochondrial (Homo sapiens) (UniProt P78540) assay, enter Percent Effect for Cc1cc(C(C)C(=O)N2CCCN(Cc3cscn3)CC2)c(C)o1 (stereo not given) here
-4.98

Lab note: Arginase-2, mitochondrial (Homo sapiens) (UniProt P78540) assay, enter Percent Effect for CC(NC(=O)CSCC(=O)Nc1ccccc1)c1ccccc1 (stereo not given) here
1.08

Lab note: Arginase-2, mitochondrial (Homo sapiens) (UniProt P78540) assay, enter Percent Effect for Fc1ccc2[nH]c(C3CCCN3CCc3ccccn3)nc2c1 (stereo not given) here
-1.2

Lab note: Arginase-2, mitochondrial (Homo sapiens) (UniProt P78540) assay, enter Percent Effect for CN1CCN(Cc2nnc(C3CCN(CC4CC4)CC3)n2C)CC1 here
7.27
